The entries below come with measured pKi values attached.
# assaySystem: CDK6/cyclin D3 (Homo sapiens (Human))
# Sequence (Q00534 whole entry, looked up): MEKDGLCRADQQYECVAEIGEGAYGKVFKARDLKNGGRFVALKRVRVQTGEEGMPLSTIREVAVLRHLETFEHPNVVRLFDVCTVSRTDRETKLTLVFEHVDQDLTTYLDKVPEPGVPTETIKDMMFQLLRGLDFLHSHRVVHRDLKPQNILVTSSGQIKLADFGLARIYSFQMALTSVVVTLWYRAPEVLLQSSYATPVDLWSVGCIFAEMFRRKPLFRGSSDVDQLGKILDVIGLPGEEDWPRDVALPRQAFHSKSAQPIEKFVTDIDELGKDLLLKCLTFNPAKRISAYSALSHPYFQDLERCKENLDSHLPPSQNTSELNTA
# Sequence (P30281 whole entry partner, looked up): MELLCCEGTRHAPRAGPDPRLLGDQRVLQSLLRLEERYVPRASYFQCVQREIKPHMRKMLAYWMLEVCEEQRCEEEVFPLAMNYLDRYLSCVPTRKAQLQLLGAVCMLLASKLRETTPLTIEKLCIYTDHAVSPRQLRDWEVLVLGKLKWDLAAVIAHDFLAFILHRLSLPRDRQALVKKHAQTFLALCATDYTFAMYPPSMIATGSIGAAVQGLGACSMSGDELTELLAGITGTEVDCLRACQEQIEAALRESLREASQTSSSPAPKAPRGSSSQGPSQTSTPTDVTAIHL
# assayProtocol: CDK6/Cyclin D3 mobility shift assay
# conditionNotes: Biochemical Assay: CDK6/cyclin D3
In plain terms, pKi is the concentration in mol/L turned into minus its base-10 logarithm.

| compound | propertyMeasured | reading |
| --- | --- | --- |
| Cc1cc(CC(=O)Nc2cc([C@H]3CC[C@@H](OC(=O)NC4(C)CC4)C3)[nH]n2)on1 [Example 15] | pKi | 7.23 |

Okay, now this compound:
input: Give pKi; test system CDK6/cyclin D3 (Homo sapiens (Human)); compound COCc1cc(C(=O)Nc2cc([C@H]3CC[C@@H](OC(=O)NC(C)C)C3)[nH]n2)n(C)n1 [Example 13]
output: 6.33

====

# assaySystem: CDK2/Cyclin E1 full length (Homo sapiens (Human))
# assayProtocol: CDK2/Cyclin E1 full length mobility shift assay
The entries below come with measured pKi values attached.
In plain terms, pKi is the concentration in mol/L turned into minus its base-10 logarithm.

input: Look up and report measured pKi for this entry: Cn1nncc1C(=O)Nc1cc([C@H]2CC[C@@H](OC(=O)NC(C)(C)C)C2)[nH]n1
output: 9.07

input: Look up and report measured pKi for this entry: CC[C@H](C)NC(=O)O[C@@H]1CC[C@H](c2cc(NC(=O)Cc3ccc(C(F)(F)F)cn3)n[nH]2)C1
output: 8.84

input: Look up and report measured pKi for this entry: COc1ccc(CC(=O)Nc2cc([C@@H]3CC[C@H](OC(=O)N[C@H]4CC[C@](C)(O)CC4)C3)[nH]n2)cn1
output: 8.97

input: Look up and report measured pKi for this entry: CC[C@H](C)NC(=O)O[C@@H]1CC[C@H](c2cc(NC(=O)Cc3ccc(OC)cc3S(C)(=O)=O)n[nH]2)C1
output: 9.68

input: Look up and report measured pKi for this entry: Cc1cnc(CC(=O)Nc2cc([C@H]3CC[C@@H](OC(=O)NC(C)C)C3)[nH]n2)s1
output: 8.51

input: Look up and report measured pKi for this entry: CCC(O)CNC(=O)O[C@@H]1CC[C@H](c2cc(NC(=O)Cc3ccc(OC)cc3)n[nH]2)C1 (single isomer, unassigned) [Example 541]
output: 8.73

input: Look up and report measured pKi for this entry: CC[C@H](C)NC(=O)O[C@@H]1CC[C@H](c2cc(NC(=O)Cc3ccc4c(cnn4C)c3)n[nH]2)C1
output: 9.77

input: Look up and report measured pKi for this entry: Cc1cc(CC(=O)Nc2cc([C@H]3CC[C@@H](OC(=O)NC(C)CC(F)(F)F)C3)[nH]n2)on1 (single isomer, unassigned) [Example 72]
output: 9.82

input: Look up and report measured pKi for this entry: C[C@@H](NC(=O)O[C@@H]1CC[C@H](c2cc(NC(=O)Cc3ccon3)n[nH]2)C1)C1CC1
output: 8.92

====

# assaySystem: GSK3β (H350L) (Homo sapiens (Human))
# Sequence (P49841 whole entry, stated change not applied): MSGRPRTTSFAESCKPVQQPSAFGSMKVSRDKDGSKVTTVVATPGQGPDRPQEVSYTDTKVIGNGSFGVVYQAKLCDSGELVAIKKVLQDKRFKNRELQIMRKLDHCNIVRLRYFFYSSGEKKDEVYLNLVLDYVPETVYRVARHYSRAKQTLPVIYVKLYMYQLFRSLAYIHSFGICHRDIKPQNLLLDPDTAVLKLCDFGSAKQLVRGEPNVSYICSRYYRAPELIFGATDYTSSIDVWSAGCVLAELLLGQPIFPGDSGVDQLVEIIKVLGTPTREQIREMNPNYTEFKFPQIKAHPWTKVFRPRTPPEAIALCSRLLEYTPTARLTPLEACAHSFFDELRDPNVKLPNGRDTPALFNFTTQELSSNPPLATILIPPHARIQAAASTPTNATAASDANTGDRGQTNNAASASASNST
# assayProtocol: biochemical
# conditionNotes: GSK3β Ki (nM)
propertyMeasured: Ki (nM)
Please respond with the number in nM and leave the unit unwritten.

| compound | propertyMeasured | reading |
| --- | --- | --- |
| CCC(CO)CNC(=O)O[C@@H]1CC[C@H](c2cc(NC(=O)Cc3ccnc(OC)c3)n[nH]2)C1 (single isomer, unassigned) [Example 535] | Ki | 3.8 |
| Cc1cc(CC(=O)Nc2cc([C@H]3CC[C@@H](OC(=O)N4CCC4C)C3)[nH]n2)on1 (single isomer, unassigned) | Ki | 18.2 |

Okay, now this compound:
input: Look up and report measured Ki for this entry: CC(C)NC(=O)O[C@@H]1CC[C@H](c2cc(NC(=O)C3COc4ccccc43)n[nH]2)C1 (single isomer, unassigned)
output: 42.8
